Recorded IC50, one value per entry.
Target: T1, CathepsinG, from human neutrophils (human, UniProt P08311 21-244)
T1 sequence (looked up): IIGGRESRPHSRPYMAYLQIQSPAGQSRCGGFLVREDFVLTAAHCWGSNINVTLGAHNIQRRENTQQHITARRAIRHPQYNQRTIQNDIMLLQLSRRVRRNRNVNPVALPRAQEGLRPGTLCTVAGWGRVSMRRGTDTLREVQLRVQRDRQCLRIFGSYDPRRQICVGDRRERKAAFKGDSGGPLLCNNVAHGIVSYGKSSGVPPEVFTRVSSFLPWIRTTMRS
Experiment: cell-based or functional assay
Bridges are numbered along the chain shown (N, C = ends). [ ]: non-standard residue; d: D form. Pro(5R-Ph) = O=C(O)[C@@H]1CC[C@H](c2ccccc2)N1

BINDER	ASSAY RESULT
FCTKSDPPICS (HELM PEPTIDE1{F.C.T.K.S.D.P.P.I.C.S.[dD].P}$PEPTIDE1,PEPTIDE1,2:R3-10:R3|PEPTIDE1,PEPTIDE1,1:R1-13:R2$$$V2.0; SMILES CC[C@H](C)[C@@H]1NC(=O)[C@@H]2CCCN2C(=O)[C@@H]2CCCN2C(=O)[C@H](CC(=O)O)NC(=O)[C@H](CO)NC(=O)[C@H](CCCCN)NC(=O)[C@H]([C@@H](C)O)NC(=O)[C@@H]2CSSC[C@H](NC1=O)C(=O)N[C@@H](CO)C(=O)N[C@H](CC(=O)O)C(=O)N1CCC[C@H]1C(=O)N[C@@H](Cc1ccccc1)C(=O)N2) [Example 46]	87.5 nmol

Provide IC50 value for the following binder: cyclo(FCTKSDPPICS[dP][Pro(5R-Ph)]) (disulfide 2-10) [Example 48] 83 nmol

Data origin: patent US20140213531A1
